# Test summary: Degradation in rat intestinal preparation
# Assay type: in vitro ADME
# Applied conditions: pH 7.4, 37° C., read-out: half-time, Rat Intestinal Preparation (converted)
Square brackets hold non-standard residues; d marks the D form. Peptide text beside a SMILES is read from it. Ala(indol-4-yl) = N[C@@H](Cc1cccc2[nH]ccc12)C(=O)O; NMeR = CN[C@@H](CCCNC(=N)N)C(=O)O; Tle = CC(C)(C)[C@H](N)C(=O)O; Dab = NCC[C@H](N)C(=O)O
Value kind: half-life

1) CN[C@@H](CCCNC(=N)N)C(=O)N[C@@H](CCCCN)C(=O)N1CCC[C@H]1C(=O)N[C@@H](Cc1cccc2[nH]ccc12)C(=O)N[C@H](C(=O)N[C@@H](CC(C)C)C(=O)O)C(C)(C)C [NT69L] (H-[NMeR]KP[Ala(indol-4-yl)][Tle]L-OH; N-terminus and C-terminus assumed)
246 min
2) CC[C@H](C)[C@H](NC(=O)[C@H](Cc1cccc2[nH]ccc12)NC(=O)[C@@H]1CCCN1C(=O)[C@H](CCCNC(=N)N)NC(=O)[C@H](N)CCCCN)C(=O)N[C@@H](CC(C)C)C(=O)O [NT67L] (H-[dK]RP[Ala(indol-4-yl)]IL-OH; N-terminus and C-terminus assumed)
46.2 min
3) CC[C@H](C)[C@H](NC(=O)[C@H](Cc1cccc2[nH]ccc12)NC(=O)[C@@H]1CCCN1C(=O)[C@H](N)CCCCN)C(=O)N[C@@H](CC(C)C)C(=O)O [NT73] (H-[dK]P[Ala(indol-4-yl)]IL-OH; N-terminus and C-terminus assumed)
49.8 min
4) CC[C@H](C)[C@H](NC(=O)[C@H](Cc1cccc2[nH]ccc12)NC(=O)[C@@H]1CCCN1C(=O)[C@@H](N)CCN)C(=O)N[C@@H](CC(C)C)C(=O)O [NT75] (H-[Dab]P[Ala(indol-4-yl)]IL-OH; N-terminus and C-terminus assumed)
16.2 min
5) CN[C@@H](CCCNC(=N)N)C(=O)N[C@@H](CCN)C(=O)N1CCC[C@H]1C(=O)N[C@@H](Cc1cccc2[nH]ccc12)C(=O)N[C@H](C(=O)N[C@@H](CC(C)C)C(=O)O)C(C)(C)C [NT71] (H-[NMeR][Dab]P[Ala(indol-4-yl)][Tle]L-OH; N-terminus and C-terminus assumed)
306 min

* * *

# Test summary: Catalepsy bar test in rats
# Format: in vivo, rat
# Applied conditions: male, Sprague-Dawley, rat, in vivo; ip, at 30 minutes; read-out: ED50 haloperidol-induced catalepsy
Value kind: ED50 at 30 min (mg/kg)

1) O=C(CCCN1CCC(O)(c2ccc(Cl)cc2)CC1)c1ccc(F)cc1 [Haloperidol, reference compound]
0.13

* * *

# System: human NTR1 (Homo sapiens, UniProt P30989)
# Construct: expressed in transfected cells; host or cells: CHO-K1
# Sequence (P30989 whole entry): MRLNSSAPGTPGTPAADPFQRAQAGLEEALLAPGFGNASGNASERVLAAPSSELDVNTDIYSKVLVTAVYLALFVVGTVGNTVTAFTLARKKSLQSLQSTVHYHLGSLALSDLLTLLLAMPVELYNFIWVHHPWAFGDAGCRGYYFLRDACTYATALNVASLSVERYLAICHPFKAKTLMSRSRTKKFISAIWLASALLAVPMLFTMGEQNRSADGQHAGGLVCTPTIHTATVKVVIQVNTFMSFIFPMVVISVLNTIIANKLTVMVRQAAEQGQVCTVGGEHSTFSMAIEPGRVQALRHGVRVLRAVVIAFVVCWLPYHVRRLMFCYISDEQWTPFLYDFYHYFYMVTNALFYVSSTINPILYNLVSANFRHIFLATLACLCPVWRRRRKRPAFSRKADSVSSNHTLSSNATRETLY
# Test summary: Competition binding with [3H]NT, membranes of CHO-K1 cells transfected with human NTR1
# Applied conditions: CHO cells; read-out: Kd hNTR (Table VII)
Value kind: Kd

1. NCCc1c[nH]c2ccc(O)cc12 [Serotonin, reference compound]
> 100 µM
2. CN1CCN(C2=Nc3cc(Cl)ccc3Nc3ccccc32)CC1 [Clozapine, reference compound]
> 100 µM
3. N[C@@H](Cc1cccc2[nH]ccc12)C(=O)O [L-neo-Trp]
> 100 µM

* * *

Measured half-life at 0.5 mg/mL of individual entries
# Test summary: Degradation in rat plasma (HPLC peak area)
# Type: in vitro ADME
# Applied conditions: 25% plasma, 37° C., 0.5 mg/mL polypeptide, read-out: half-time, Plasma Rat (converted)
Square brackets hold non-standard residues; d marks the D form. Peptide text beside a SMILES is read from it. Ala(indol-4-yl) = N[C@@H](Cc1cccc2[nH]ccc12)C(=O)O; NMeR = CN[C@@H](CCCNC(=N)N)C(=O)O; Tle = CC(C)(C)[C@H](N)C(=O)O; Dab = NCC[C@H](N)C(=O)O
Value kind: half-life at 0.5 mg/mL

1) CN[C@@H](CCCNC(=N)N)C(=O)N[C@@H](CCCCN)C(=O)N1CCC[C@H]1C(=O)N[C@@H](Cc1cccc2[nH]ccc12)C(=O)N[C@H](C(=O)N[C@@H](CC(C)C)C(=O)O)C(C)(C)C [NT69L] (H-[NMeR]KP[Ala(indol-4-yl)][Tle]L-OH; N-terminus and C-terminus assumed)
10.4 days
2) CC(C)C[C@H](NC(=O)[C@@H](NC(=O)[C@H](Cc1cccc2[nH]ccc12)NC(=O)[C@@H]1CCCN1C(=O)[C@H](CCCNC(=N)N)NC(=O)[C@H](N)CCCCN)C(C)(C)C)C(=O)O [NT66L] (H-[dK]RP[Ala(indol-4-yl)][Tle]L-OH; N-terminus and C-terminus assumed)
14.6 days
3) CN[C@@H](CCCNC(=N)N)C(=O)N[C@@H](CCN)C(=O)N1CCC[C@H]1C(=O)N[C@@H](Cc1cccc2[nH]ccc12)C(=O)N[C@H](C(=O)N[C@@H](CC(C)C)C(=O)O)C(C)(C)C [NT71] (H-[NMeR][Dab]P[Ala(indol-4-yl)][Tle]L-OH; N-terminus and C-terminus assumed)
10.8 days
4) CC[C@H](C)[C@H](NC(=O)[C@H](Cc1cccc2[nH]ccc12)NC(=O)[C@@H]1CCCN1C(=O)[C@H](CCCNC(=N)N)NC(=O)[C@H](N)CCCCN)C(=O)N[C@@H](CC(C)C)C(=O)O [NT67L] (H-[dK]RP[Ala(indol-4-yl)]IL-OH; N-terminus and C-terminus assumed)
5.42 days

* * *

Measured log10 of half-life at 0.5 mg/mL of individual entries
# Test summary: Degradation in human plasma (HPLC peak area)
# Type: in vitro ADME
# Applied conditions: human; 25% plasma, 37° C., 0.5 mg/mL polypeptide; read-out: half-time, Plasma Human (converted)
Square brackets hold non-standard residues; d marks the D form. Peptide text beside a SMILES is read from it. Ala(indol-4-yl) = N[C@@H](Cc1cccc2[nH]ccc12)C(=O)O; NMeR = CN[C@@H](CCCNC(=N)N)C(=O)O; Tle = CC(C)(C)[C@H](N)C(=O)O
Value kind: log10 of half-life at 0.5 mg/mL (log10 of the value in days)

1) CC[C@H](C)[C@H](NC(=O)[C@H](Cc1cccc2[nH]ccc12)NC(=O)[C@@H]1CCCN1C(=O)[C@H](CCCNC(=N)N)NC(=O)[C@@H](N)CCCNC(=N)N)C(=O)N[C@@H](CC(C)C)C(=O)O [NT64L]
-1.23
2) CC[C@H](C)[C@H](NC(=O)[C@H](Cc1cccc2[nH]ccc12)NC(=O)[C@@H]1CCCN1C(=O)[C@H](CCCNC(=N)N)NC(=O)[C@H](N)CCCCN)C(=O)N[C@@H](CC(C)C)C(=O)O [NT67L] (H-[dK]RP[Ala(indol-4-yl)]IL-OH; N-terminus and C-terminus assumed)
0.60
3) CC[C@H](C)[C@H](NC(=O)[C@H](Cc1cccc2[nH]ccc12)NC(=O)[C@@H]1CCCN1C(=O)[C@H](N)CCCCN)C(=O)N[C@@H](CC(C)C)C(=O)O [NT73] (H-[dK]P[Ala(indol-4-yl)]IL-OH; N-terminus and C-terminus assumed)
1.10
4) CN[C@@H](CCCNC(=N)N)C(=O)N[C@@H](CCCCN)C(=O)N1CCC[C@H]1C(=O)N[C@@H](Cc1cccc2[nH]ccc12)C(=O)N[C@H](C(=O)N[C@@H](CC(C)C)C(=O)O)C(C)(C)C [NT69L] (H-[NMeR]KP[Ala(indol-4-yl)][Tle]L-OH; N-terminus and C-terminus assumed)
1.32
5) CC(C)C[C@H](NC(=O)[C@@H](NC(=O)[C@H](Cc1cccc2[nH]ccc12)NC(=O)[C@@H]1CCCN1C(=O)[C@H](N)CCCCN)C(C)(C)C)C(=O)O [NT72] (H-[dK]P[Ala(indol-4-yl)][Tle]L-OH; N-terminus and C-terminus assumed)
2.10
6) CC(C)C[C@H](NC(=O)[C@@H](NC(=O)[C@H](Cc1cccc2[nH]ccc12)NC(=O)[C@@H]1CCCN1C(=O)[C@H](CCCNC(=N)N)NC(=O)[C@H](N)CCCCN)C(C)(C)C)C(=O)O [NT66L] (H-[dK]RP[Ala(indol-4-yl)][Tle]L-OH; N-terminus and C-terminus assumed)
0.85
7) CN[C@@H](CCCNC(=N)N)C(=O)N[C@@H](CCCCN)C(=O)N1CCC[C@H]1C(=O)N[C@@H](Cc1c[nH]c2ccccc12)C(=O)N[C@H](C(=O)N[C@@H](CC(C)C)C(=O)O)C(C)(C)C [Eisai, reference compound] (H-[NMeR]KPW[Tle]L-OH; N-terminus and C-terminus assumed)
1.28

* * *

Measured log10(Kd) of individual entries
# System: rat NTR1 (Rattus norvegicus)
# Construct: expressed in transfected cells; host or cells: CHO-K1
# Sequence (P20789 whole entry): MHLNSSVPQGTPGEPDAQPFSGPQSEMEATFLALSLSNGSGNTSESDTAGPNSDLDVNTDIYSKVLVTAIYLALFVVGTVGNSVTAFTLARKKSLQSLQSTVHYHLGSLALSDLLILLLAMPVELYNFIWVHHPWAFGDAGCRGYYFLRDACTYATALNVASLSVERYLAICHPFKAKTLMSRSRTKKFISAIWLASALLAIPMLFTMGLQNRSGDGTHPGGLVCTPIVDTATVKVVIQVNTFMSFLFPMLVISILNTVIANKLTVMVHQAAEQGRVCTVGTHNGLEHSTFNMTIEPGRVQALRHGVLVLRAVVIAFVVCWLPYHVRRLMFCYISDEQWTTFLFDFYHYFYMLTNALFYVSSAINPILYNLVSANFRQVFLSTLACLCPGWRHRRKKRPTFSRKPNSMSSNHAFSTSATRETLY
# Test summary: Competition binding with [3H]NT, membranes of CHO-K1 cells transfected with rat NTR1
Square brackets hold non-standard residues; d marks the D form. Peptide text beside a SMILES is read from it. Ala(indol-4-yl) = N[C@@H](Cc1cccc2[nH]ccc12)C(=O)O; NMeR = CN[C@@H](CCCNC(=N)N)C(=O)O; Tle = CC(C)(C)[C@H](N)C(=O)O
Value kind: log10(Kd) (log10 of the value in nM)

1) CC[C@H](C)[C@H](NC(=O)[C@H](Cc1cccc2[nH]ccc12)NC(=O)[C@@H]1CCCN1C(=O)[C@H](N)CCCCN)C(=O)N[C@@H](CC(C)C)C(=O)O [NT73] (H-[dK]P[Ala(indol-4-yl)]IL-OH; N-terminus and C-terminus assumed)
1.51
2) CN[C@@H](CCCNC(=N)N)C(=O)N[C@@H](CCCCN)C(=O)N1CCC[C@H]1C(=O)N[C@@H](Cc1cccc2[nH]ccc12)C(=O)N[C@H](C(=O)N[C@@H](CC(C)C)C(=O)O)C(C)(C)C [NT69L] (H-[NMeR]KP[Ala(indol-4-yl)][Tle]L-OH; N-terminus and C-terminus assumed)
-0.09
3) CC(C)C[C@H](NC(=O)[C@@H](NC(=O)[C@H](Cc1cccc2[nH]ccc12)NC(=O)[C@@H]1CCCN1C(=O)[C@H](CCCNC(=N)N)NC(=O)[C@H](N)CCCCN)C(C)(C)C)C(=O)O [NT66L] (H-[dK]RP[Ala(indol-4-yl)][Tle]L-OH; N-terminus and C-terminus assumed)
-0.07
4) CC(C)C[C@H](NC(=O)[C@@H](NC(=O)[C@H](Cc1cccc2[nH]ccc12)NC(=O)[C@@H]1CCCN1C(=O)[C@H](N)CCCCN)C(C)(C)C)C(=O)O [NT72] (H-[dK]P[Ala(indol-4-yl)][Tle]L-OH; N-terminus and C-terminus assumed)
2.43
5) CC[C@H](C)[C@H](NC(=O)[C@H](Cc1cccc2[nH]ccc12)NC(=O)[C@@H]1CCCN1C(=O)[C@H](CCCNC(=N)N)NC(=O)[C@H](N)CCCCN)C(=O)N[C@@H](CC(C)C)C(=O)O [NT67L] (H-[dK]RP[Ala(indol-4-yl)]IL-OH; N-terminus and C-terminus assumed)
-0.68
